Recorded LEUKOCYTE COUNT for the following compounds
Species on record: Rattus norvegicus
Assay Protocol: DrugMatrix - Regimen: Daily Repeat
Type: toxicity, organism-based, Sprague-Dawley
Parameters: regimen Daily Repeat, gender Male, age 6-8 weeks
Experimental Parameters: in vivo, po, 0 mg/kg, 72 h, tissue Blood, route oral GAVAGE, dose level Control, time 3 day, vehicle .5 % CMC

[
  {
    "Query Smiles": "CCCCC1C(=O)N(c2ccccc2)N(c2ccccc2)C1=O",
    "Measure Unit": "x10E3/uL",
    "LEUKOCYTE COUNT": 9.93
  },
  {
    "Query Smiles": "C[C@]12C/C(=C/O)C(=O)C[C@@H]1CC[C@@H]1[C@@H]2CC[C@@]2(C)[C@H]1CC[C@]2(C)O",
    "Measure Unit": "x10E3/uL",
    "LEUKOCYTE COUNT": 9.78
  },
  {
    "Query Smiles": "CC(C)(Sc1cc(C(C)(C)C)c(O)c(C(C)(C)C)c1)Sc1cc(C(C)(C)C)c(O)c(C(C)(C)C)c1",
    "Measure Unit": "x10E3/uL",
    "LEUKOCYTE COUNT": 16.17
  },
  {
    "Query Smiles": "COc1ccc(/C=C/C(=O)Nc2ccccc2C(=O)O)cc1OC",
    "Measure Unit": "x10E3/uL",
    "LEUKOCYTE COUNT": 16.17
  },
  {
    "Query Smiles": "CN1C(=O)CN=C(c2ccccc2)c2cc(Cl)ccc21",
    "Measure Unit": "x10E3/uL",
    "LEUKOCYTE COUNT": 13.4
  },
  {
    "Query Smiles": "C[C@@H](O)[C@H]1C(=O)N2C(C(=O)O)=C(S[C@@H]3CN[C@H](C(=O)N(C)C)C3)[C@H](C)[C@H]12",
    "Measure Unit": "x10E3/uL",
    "LEUKOCYTE COUNT": 16.17
  },
  {
    "Query Smiles": "CC[C@]1(O)CC[C@H]2[C@@H]3CCC4=CCCC[C@@H]4[C@H]3CC[C@@]21C",
    "Measure Unit": "x10E3/uL",
    "LEUKOCYTE COUNT": 8.79
  },
  {
    "Query Smiles": "C[C@@H]1CC[C@H]2[C@@H](C)C(=O)O[C@@H]3O[C@@]4(C)CC[C@@H]1[C@]32OO4",
    "Measure Unit": "x10E3/uL",
    "LEUKOCYTE COUNT": 15.25
  },
  {
    "Query Smiles": "CO[C@H]1C[C@@H]2CC[C@@H](C)[C@@](O)(O2)C(=O)C(=O)N2CCCC[C@H]2C(=O)O[C@H]([C@H](C)C[C@@H]2CC[C@@H](O)[C@H](OC)C2)CC(=O)[C@H](C)/C=C(\\C)[C@@H](O)[C@@H](OC)C(=O)[C@H](C)C[C@H](C)/C=C/C=C/C=C/1C",
    "Measure Unit": "x10E3/uL",
    "LEUKOCYTE COUNT": 17.57
  }
]
